experimental details: Partition coefficient (logP) measured in a mixture of 1-octanol/phosphate buffer (0.1 M, pH 7.4)
Format: physicochemical
attribute measured: logD
Answers are plain numbers.

Provide measured logD value, entry: CC(=O)OC1CCN([11CH3])CC1
-2.2

// Input: CC(=O)OC1CCN(CC[18F])CC1 . Output its logD only.
-1.9

Supply recorded logD for CCC(=O)OC1CCN([11CH3])CC1 here.
-2.2

***
Answer with the recorded logD for the molecule listed here: CC(=O)OCC1CCN(CC[18F])CC1
-1.3

====

experimental details: Partition coefficient (logP) measured in a mixture of 1-octanol/phosphate buffer (0.1 M, pH 7.4)
Format: physicochemical
attribute measured: logD
Give bare numbers.

Some compounds with known logD results, for comparison:
Give the reported logD for this compound. CC(=O)OC1CCN(CC[18F])CC1
-0.11

Give the reported logD for this compound. CC(=O)OCC1CCN(CC[18F])CC1
0.04

Specify measured logD for CC(=O)OC1CCN([11CH3])CC1 .
-0.3

Now for another entry.
Identify measured logD associated with CCC(=O)OC1CCN([11CH3])CC1
-0.22

Reference source: ChEMBL document CHEMBL1143574
